# Assay Remarks: Half life in rat at 10 umol/kg, iv
# Assay type: ADME, organism-based
# Cond: in vivo
Measurement Label: half-life (h)

1: C[C@@H](NC(=O)Nc1cccc2[nH]ncc12)c1ccc(C(F)(F)F)cc1
2: CC(NC(=O)Nc1cccc2cnccc12)c1ccc(C(F)(F)F)cc1 (stereo not drawn)
3: O=C(NCc1ccc(C(F)(F)F)cc1)Nc1cccc2cnccc12
Challenge: Sort by half-life, descending. Reply with the item labels sorted in the order that was asked for.
Response given: 1, 2, 3
(1: 2.1 h, 2: 1.1 h, 3: 0.6 h)

====

# System: Transient receptor potential cation channel subfamily V member 1 (Homo sapiens)
# Sequence (Q8NER1 whole entry): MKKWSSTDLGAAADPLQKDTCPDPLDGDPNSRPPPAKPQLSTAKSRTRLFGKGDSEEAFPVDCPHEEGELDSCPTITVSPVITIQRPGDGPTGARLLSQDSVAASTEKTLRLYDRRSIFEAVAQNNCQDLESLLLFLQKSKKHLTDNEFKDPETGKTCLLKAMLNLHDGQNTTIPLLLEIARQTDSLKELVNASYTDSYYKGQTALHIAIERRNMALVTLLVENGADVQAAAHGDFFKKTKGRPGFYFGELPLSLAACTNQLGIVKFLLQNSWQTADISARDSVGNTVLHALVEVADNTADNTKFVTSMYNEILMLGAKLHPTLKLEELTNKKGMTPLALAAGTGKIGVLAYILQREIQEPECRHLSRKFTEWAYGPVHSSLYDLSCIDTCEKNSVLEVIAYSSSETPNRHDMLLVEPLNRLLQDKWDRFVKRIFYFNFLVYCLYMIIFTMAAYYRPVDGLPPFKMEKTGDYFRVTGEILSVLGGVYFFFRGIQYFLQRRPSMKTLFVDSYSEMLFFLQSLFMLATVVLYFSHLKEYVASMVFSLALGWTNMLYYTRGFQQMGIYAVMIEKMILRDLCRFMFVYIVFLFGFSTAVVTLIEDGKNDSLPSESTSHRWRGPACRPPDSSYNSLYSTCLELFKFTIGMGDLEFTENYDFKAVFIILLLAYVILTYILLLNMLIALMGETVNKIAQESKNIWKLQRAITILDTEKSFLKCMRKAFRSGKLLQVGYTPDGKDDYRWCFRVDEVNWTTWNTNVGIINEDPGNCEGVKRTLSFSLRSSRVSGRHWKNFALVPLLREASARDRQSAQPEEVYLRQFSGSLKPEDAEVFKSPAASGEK
# Assay Remarks: Antagonist activity at human TRPV1 by calcium influx assay
# Format: functional
pIC50: −log10 of the molar value.
Measurement Label: pIC50

// known answers, use as guide
Compound | Measurement Label | Measured Result
CC(NC(=O)Nc1cccc2cnccc12)c1ccc(C(F)(F)F)c(F)c1 (configuration not stated) | pIC50 | 7.72
C[C@@H](NC(=O)Nc1cccc2[nH]ncc12)c1cccc2ccccc12 | pIC50 | 6.91
Cc1ccc([C@H](C)NC(=O)Nc2cccc3[nH]ncc23)cc1 | pIC50 | 6.13
CC(NC(=O)Nc1cccc2cnccc12)c1ccc(C(C)(C)C)cc1C(C)(C)C (configuration not stated) | pIC50 | 7.77
CC(NC(=O)Nc1cccc2cnccc12)c1ccc(C(C)(C)C)cc1 (configuration not stated) | pIC50 | 7.62

A: CC(NC(=O)Nc1cccc2[nH]ncc12)c1ccc(C(F)(F)F)cc1 (racemic)
B: CC(NC(=O)Nc1cccc2cnccc12)c1ccc(C(F)(F)F)cc1 (configuration not stated)
Challenge: Between item A and item B , which reported pIC50 is smaller? Provide the label of your selected option as the answer.
Response given: A

I: C[C@H](NC(=O)Nc1cccc2[nH]ncc12)c1ccc(C(F)(F)F)cc1
II: Cc1ccc([C@@H](C)NC(=O)Nc2cccc3[nH]ncc23)cc1
III: O=C(Nc1cccc2cnccc12)NC(c1ccccc1)c1ccccc1
Challenge: Please list the entries, largest pIC50 first. Reply with the item labels sorted in the order that was asked for.
Response given: II, I, III

1: CC(C)(C)c1ccc(C(NC(=O)Nc2cccc3cnccc23)c2ccccc2)cc1 (configuration not stated)
2: O=C(Nc1cccc2cnccc12)NC(c1ccc(C(F)(F)F)cc1)C1CCCCC1 (configuration not stated)
Challenge: Between item 1 and item 2 , which reported pIC50 is smaller? Provide the label of your selected option as the answer.
Response given: 2
(2: 6.54, 1: 6.90)
